Molecular target: recombinant human GST-SYK (Homo sapiens)
Assay: Homogeneous Time-Resolved Fluorescence (HTRF) assay for the recombinant human SYK enzyme
Details: recombinant human GST-SYK 5 pM, ATP 25 μM, 10-dose titration; read-out: rhSYK Activity (IC50)
pIC50: −log10 of the molar value.
property-label: pIC50

Reference set, count: 5
Cc1cc(Nc2nccc(C(F)(F)F)n2)cc(-c2cnc(N(C)CCO)s2)c1; ≥ 7.00
Cc1cc(Nc2nccc(C(F)(F)F)n2)cc(-c2cnc(N3CCCNC(=O)C3)s2)c1; ≥ 7.00
CCC(CO)Nc1ncc(-c2cccc(Nc3nccc(C(F)(F)F)n3)c2)s1 (stereo not shown); ≥ 7.00
O=C1CCCN1CCNc1ncc(-c2cccc(Nc3nccc(C(F)(F)F)n3)c2)s1; ≥ 7.00
FC(F)(F)c1ccnc(Nc2cccc(-c3cnc(NCc4c[nH]nc4-c4ccccc4)s3)c2)n1; 6.00 to 7.00

Query CC(Nc1ncc(-c2cccc(Nc3nccc(C(F)(F)F)n3)c2)s1)c1ccccc1 (stereo not shown) yields pIC50 of 6.00 to 7.00

Query OC1(c2ccccc2)CCN(c2ncc(-c3cccc(Nc4nccc(C(F)(F)F)n4)c3)s2)C1 (stereo not shown) yields pIC50 of 6.00 to 7.00

Query CCOCCNc1ncc(-c2cccc(Nc3nccc(C(F)(F)F)n3)c2)s1 yields pIC50 of ≥ 7.00

Query OCCC1CCN(c2ncc(-c3cccc(Nc4nccc(C(F)(F)F)n4)c3)s2)CC1 yields pIC50 of ≥ 7.00

Query Cc1cc(Nc2nccc(C(F)(F)F)n2)cc(-c2cnc(NCCc3c[nH]c4ccccc34)s2)c1 yields pIC50 of ≥ 7.00

Query O[C@H]1CC[C@H](Nc2ncc(-c3cccc(Nc4nccc(C(F)(F)F)n4)c3)s2)CC1 yields pIC50 of ≥ 7.00

Query CC(=O)N1CCCN(c2ncc(-c3cccc(Nc4nccc(C(F)(F)F)n4)c3)s2)CC1 yields pIC50 of ≥ 7.00

Query Cc1cc(Nc2nccc(C(F)(F)F)n2)cc(-c2cnc(NCCc3cnccn3)s2)c1 yields pIC50 of ≥ 7.00

Query OCCNc1ncc(-c2cccc(Nc3nccc(C(F)(F)F)n3)c2)s1 yields pIC50 of ≥ 7.00

Query FC(F)(F)c1ccnc(Nc2cccc(-c3cnc(N4CCCC4c4ccccc4)s3)c2)n1 (stereo not shown) yields pIC50 of 6.00 to 7.00

Query Cc1cc(Nc2nccc(C(F)(F)F)n2)cc(-c2cnc(NCCc3ccncc3)s2)c1 yields pIC50 of ≥ 7.00

Query Cc1cc(CNc2ncc(-c3cccc(Nc4nccc(C(F)(F)F)n4)c3)s2)no1 yields pIC50 of ≥ 7.00

Query O=C1CN(c2ncc(-c3cccc(Nc4nccc(C(F)(F)F)n4)c3)s2)CCN1 yields pIC50 of 5.00 to 6.00

Query OC1CCN(c2ncc(-c3cccc(Nc4nccc(C(F)(F)F)n4)c3)s2)C1 (stereo not shown) yields pIC50 of ≥ 7.00

Query Cc1cc(Nc2ncc(F)c(OC3CCOC3)n2)cc(-c2cnc(N3CCCNC(=O)C3)s2)c1 (stereo not shown) yields pIC50 of 6.00 to 7.00

----------
Target: recombinant human GST-SYK (Homo sapiens)
Construct: purchased Carna Biosciences 08-176
Experiment: Homogeneous Time-Resolved Fluorescence (HTRF) assay for the recombinant human SYK enzyme
Type: biochemical
Settings: recombinant human GST-SYK 5 pM, ATP 25 μM, 10-dose titration; read-out: rhSYK Activity (IC50)
pIC50: −log10 of the molar value.
pIC50 for assorted compounds

Reference set, count: 3
OCCN(CCO)c1ncc(-c2cccc(Nc3nccc(C(F)(F)F)n3)c2)s1 [Example 3]; ≥ 7.00
CN(Cc1ccccn1)c1ncc(-c2cccc(Nc3nccc(C(F)(F)F)n3)c2)s1 [Example 33]; ≥ 7.00
Cc1cc(Nc2nccc(C(F)(F)F)n2)cc(-c2csc(N3CCC(O)CC3)n2)c1 [Example 225]; 6.00 to 7.00

Query Cc1cc(Nc2nccc(C(F)(F)F)n2)cc(-c2cnc(N3CCC4CN(C)CC4C3)s2)c1 (stereo not shown) [Example 153] yields pIC50 of ≥ 7.00

----------
Target: recombinant human GST-SYK (Homo sapiens)
Experiment: Homogeneous Time-Resolved Fluorescence (HTRF) assay for the recombinant human SYK enzyme
Conditions: recombinant human GST-SYK 5 pM, ATP 25 μM, 10-dose titration; read-out: rhSYK Activity (IC50)
Protocol: Homogeneous Time-Resolved Fluorescence (HTRF) Assay for the Recombinant Human SYK Enzyme: A recombinant GST-hSYK fusion protein was used to measure potency of compounds to inhibit human SYK activity. […] The resulting HTRF signal was measured after 30 minutes on a EnVision (Perkin-Elmer) reader using a time-resolved fluorescence protocol.
property-label: IC50

Reference set, count: 3
FC(F)(F)c1ccnc(Nc2cccc(-c3cnc(NCc4cncnc4)s3)c2)n1; ≤ 100 nM
FC(F)(F)c1ccnc(Nc2cccc(-c3cnc(N4CCC(n5cc(-c6ccccc6)nn5)CC4)s3)c2)n1; 100 to 1000 nM
FC(F)(F)c1ccnc(Nc2cccc(-c3cnc(N4CCOCC4)s3)c2)n1; ≤ 100 nM

Per the reported recombinant human GST-SYK (Homo sapiens) data, OCCC1CCCN(c2ncc(-c3cccc(Nc4nccc(C(F)(F)F)n4)c3)s2)C1 (centres unmarked) has IC50 of ≤ 100 nM

Per the reported recombinant human GST-SYK (Homo sapiens) data, Cc1cc(CNc2ncc(-c3cccc(Nc4nccc(C(F)(F)F)n4)c3)s2)n(C)n1 has IC50 of ≤ 100 nM

Per the reported recombinant human GST-SYK (Homo sapiens) data, CSCCC(CO)Nc1ncc(-c2cccc(Nc3nccc(C(F)(F)F)n3)c2)s1 (centres unmarked) has IC50 of ≤ 100 nM

----------
IC50 for assorted compounds
Target: recombinant human GST-SYK (Homo sapiens, UniProt P43405)
Assay: Homogeneous Time-Resolved Fluorescence (HTRF) assay for the recombinant human SYK enzyme
Details: recombinant human GST-SYK 5 pM, ATP 25 μM, 10-dose titration; read-out: rhSYK Activity (IC50)

Cc1cc(Nc2nccc(C(F)(F)F)n2)cc(-c2cnc(N(C)Cc3cnn(C)c3)s2)c1; ≤ 100 nM
OC1(C(F)(F)F)CN(c2ncc(-c3cccc(Nc4nccc(C(F)(F)F)n4)c3)s2)C1; 100 to 1000 nM
Cc1cc(Nc2nccc(C(F)(F)F)n2)cc(-c2cnc(N3CCOC3=O)s2)c1; ≤ 100 nM

Query COCC(=O)N1CCN(c2ncc(-c3cccc(Nc4nccc(C(F)(F)F)n4)c3)s2)CC1 yields IC50 of ≤ 100 nM

----------
Target: recombinant human GST-SYK (Homo sapiens, UniProt P43405)
Test: Homogeneous Time-Resolved Fluorescence (HTRF) assay for the recombinant human SYK enzyme
Settings: recombinant human GST-SYK 5 pM, ATP 25 μM, 10-dose titration; read-out: rhSYK Activity (IC50)
pIC50: −log10 of the molar value.
property-label: pIC50

Reference set, count: 3
Fc1c(CNc2ncc(-c3cccc(Nc4nccc(C(F)(F)F)n4)c3)s2)cccc1C(F)(F)F; 6.00 to 7.00
FC(F)(F)c1ccnc(Nc2cccc(-c3cnc(N4CCOC(C(F)(F)F)C4)s3)c2)n1 (centres unmarked); 6.00 to 7.00
Cc1cc(Nc2nccc(C(F)(F)F)n2)cc(-c2cnc(NCC(O)c3ccncc3)s2)c1 (centres unmarked); 6.00 to 7.00

Query CCCC[C@@H](CO)Nc1ncc(-c2cccc(Nc3nccc(C(F)(F)F)n3)c2)s1 yields pIC50 of ≥ 7.00

Query Cn1cc(CNc2ncc(-c3cccc(Nc4nccc(C(F)(F)F)n4)c3)s2)cn1 yields pIC50 of ≥ 7.00

Query Cc1cc(Nc2nccc(C(F)(F)F)n2)cc(-c2cnc(NCCc3cccs3)s2)c1 yields pIC50 of 6.00 to 7.00

Query Cc1ccsc1CNc1ncc(-c2cccc(Nc3nccc(C(F)(F)F)n3)c2)s1 yields pIC50 of 5.00 to 6.00

Query Cc1cc(Nc2nccc(O[C@@H]3CCNC3)n2)cc(-c2cnc(N3CCCNC(=O)C3)s2)c1 yields pIC50 of ≥ 7.00

----------
Biological target: recombinant human GST-SYK (Homo sapiens, UniProt P43405)
Assay: Homogeneous Time-Resolved Fluorescence (HTRF) assay for the recombinant human SYK enzyme
Settings: recombinant human GST-SYK 5 pM, ATP 25 μM, 10-dose titration; read-out: rhSYK Activity (IC50)
pIC50: −log10 of the molar value.
pIC50 for assorted molecules

Per the reported recombinant human GST-SYK (Homo sapiens, UniProt P43405) data, FC(F)(F)c1ccnc(Nc2cccc(-c3cnc(NCc4ccccn4)s3)c2)n1 has pIC50 of ≥ 7.00

Per the reported recombinant human GST-SYK (Homo sapiens, UniProt P43405) data, Cc1cc(Nc2nccc(C3CC3)n2)cc(-c2cnc(N3CCCNC(=O)C3)s2)c1 has pIC50 of ≥ 7.00

Per the reported recombinant human GST-SYK (Homo sapiens, UniProt P43405) data, OCCCCCCN(Cc1ccccc1)c1ncc(-c2cccc(Nc3nccc(C(F)(F)F)n3)c2)s1 has pIC50 of 6.00 to 7.00

Per the reported recombinant human GST-SYK (Homo sapiens, UniProt P43405) data, CCc1ccnc(Nc2cc(C)cc(-c3cnc(N4CCCNC(=O)C4)s3)c2)n1 has pIC50 of ≥ 7.00

Per the reported recombinant human GST-SYK (Homo sapiens, UniProt P43405) data, Cc1cc(Nc2nccc(OC3CCOC3)n2)cc(-c2cnc(N3CCCNC(=O)C3)s2)c1 (centres unmarked) has pIC50 of ≥ 7.00

Per the reported recombinant human GST-SYK (Homo sapiens, UniProt P43405) data, COC(=O)c1ccc(N(C)c2ncc(-c3cccc(Nc4nccc(C(F)(F)F)n4)c3)s2)cc1 has pIC50 of 6.00 to 7.00

Per the reported recombinant human GST-SYK (Homo sapiens, UniProt P43405) data, CCNC(=O)Nc1cc(Nc2nccc(C(F)(F)F)n2)cc(-c2cnc(N3CCCNC(=O)C3)s2)c1 has pIC50 of ≥ 7.00

Per the reported recombinant human GST-SYK (Homo sapiens, UniProt P43405) data, FC(F)(F)c1ccnc(Nc2cccc(-c3cnc(N4CCCNCC4)s3)c2)n1 has pIC50 of ≥ 7.00

Per the reported recombinant human GST-SYK (Homo sapiens, UniProt P43405) data, Cc1cc(Nc2nccc(C(F)(F)F)n2)cc(-c2cnc(N3CCC(CC(N)=O)CC3)s2)c1 has pIC50 of ≥ 7.00

Per the reported recombinant human GST-SYK (Homo sapiens, UniProt P43405) data, CCNC(=O)Nc1cc(Nc2nccc(C(F)(F)F)n2)cc(-c2cnc(NCCO)s2)c1 has pIC50 of ≥ 7.00

Per the reported recombinant human GST-SYK (Homo sapiens, UniProt P43405) data, Cc1ccnc(Nc2cccc(-c3csc(N4CCC(C(=O)O)CC4)n3)c2)n1 has pIC50 of 6.00 to 7.00

Reference source for all entries: patent US8735417B2
